conditions: in n-propanol, 301.75 K
metric: solubility (mole fraction)
One number for each entry.

Note to self: solubility (mole fraction) recorded for C[C@@H]1CC[C@@]2(OC1)O[C@H]1C[C@H]3[C@@H]4CC=C5C[C@@H](O)CC[C@]5(C)[C@H]4CC[C@]3(C)[C@H]1[C@@H]2C was 0.00278

---

conditions: in isooctanol, 324.95 K
metric: solubility (mole fraction)
Give bare numbers.

Note to self: solubility (mole fraction) recorded for C[C@@H]1CC[C@@]2(OC1)O[C@H]1C[C@H]3[C@@H]4CC=C5C[C@@H](O)CC[C@]5(C)[C@H]4CC[C@]3(C)[C@H]1[C@@H]2C was 0.0177
